- Subject of test: UniProt:Q3B7M2
Observation type: Ki (µM)
Please reply with the bare figure in µM and do not write the unit itself.

Completed entries (count: 3):
Compound | Value units | Result
NCCC(=O)NC(CCC(=O)NC(CSC(=O)N(O)c1ccc(Cl)cc1)C(=O)NCC(=O)O)C(=O)O (stereo not drawn) [CHG(β-Ala)n, n = 1] | µM | 1.2
O=C(O)CNC(=O)C(CSC(=O)N(O)c1ccc(Cl)cc1)NC(=O)CCC(NC(=O)CCNC(=O)CCNC(=O)CCCCCCC(=O)NCCC(=O)NCCC(=O)NC(CCC(=O)NC(CSC(=O)N(O)c1ccc(Cl)cc1)C(=O)NCC(=O)O)C(=O)O)C(=O)O (stereo not drawn) [[CHG(β-Ala)n]2sub., n = 2, [CHG(β-ala)2]2suberate diamide] | µM | 0.05
O=C(O)CNC(=O)[C@H](CSC(=O)N(O)c1ccc(Cl)cc1)NC(=O)CC[C@H](NC(=O)CCNC(=O)CCCCCCC(=O)NCCC(=O)N[C@@H](CCC(=O)N[C@@H](CSC(=O)N(O)c1ccc(Cl)cc1)C(=O)NCC(=O)O)C(=O)O)C(=O)O [[CHG(β-Ala)n]2sub., n = 1, [CHG(β-ala)]2Suberate Diamide] | µM | 0.035

Continue with the compound presented below.
Lab note: UniProt:Q3B7M2 assay, enter Ki for O=C(O)CNC(=O)[C@H](CSC(=O)N(O)c1ccc(Cl)cc1)NC(=O)CC[C@H](NC(=O)CCNC(=O)CCNC(=O)CCNC(=O)CCNC(=O)CCNC(=O)CCNC(=O)CCCCCCC(=O)NCCC(=O)NCCC(=O)NCCC(=O)NCCC(=O)NCCC(=O)NCCC(=O)N[C@@H](CCC(=O)N[C@@H](CSC(=O)N(O)c1ccc(Cl)cc1)C(=O)NCC(=O)O)C(=O)O)C(=O)O [[CHG(β-Ala)n]2sub., n = 6, [CHG (β-ala)6]2suberate diamide] here
0.142

----------
Listed here: items and their measured Ki.
- Subject of test: human GlxI (Homo sapiens)
- Construct: hGlxI from human erythrocytes; from tissue; host or cells: human erythrocytes
- Sequence (Q04760 2-184 limits assumed): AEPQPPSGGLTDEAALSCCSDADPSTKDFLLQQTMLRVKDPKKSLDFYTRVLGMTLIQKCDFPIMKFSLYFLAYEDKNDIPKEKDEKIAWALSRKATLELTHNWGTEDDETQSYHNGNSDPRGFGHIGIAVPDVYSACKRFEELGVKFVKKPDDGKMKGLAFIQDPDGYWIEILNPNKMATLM
- Protocol summary: Competitive inhibition constants (Kis) with human GlxI
- Type: biochemical
- Setup conditions: sodium phosphate buffer, 50 mM, pH 7, 25° C.; mean (±S.D.) triplicate; read-out: Ki, hGlxI
Please reply with the bare figure in nM and do not write the unit itself.

Completed entries (count: 2):
Compound | Subject of test | Observation type | Value units | Result
O=C(O)CNC(=O)[C@H](CSC(=O)N(O)c1ccc(Cl)cc1)NC(=O)CC[C@H](NC(=O)CCNC(=O)CCNC(=O)CCNC(=O)CCNC(=O)CCNC(=O)CCNC(=O)CCCCCCC(=O)NCCC(=O)NCCC(=O)NCCC(=O)NCCC(=O)NCCC(=O)NCCC(=O)N[C@@H](CCC(=O)N[C@@H](CSC(=O)N(O)c1ccc(Cl)cc1)C(=O)NCC(=O)O)C(=O)O)C(=O)O [[CHG(β-Ala)n]2sub., n = 6, [CHG (β-ala)6]2suberate diamide] | human GlxI (Homo sapiens) | Ki | nM | 0.96
O=C(O)CNC(=O)[C@H](CSC(=O)N(O)c1ccc(Cl)cc1)NC(=O)CC[C@H](NC(=O)CCNC(=O)CCCCCCC(=O)NCCC(=O)N[C@@H](CCC(=O)N[C@@H](CSC(=O)N(O)c1ccc(Cl)cc1)C(=O)NCC(=O)O)C(=O)O)C(=O)O [[CHG(β-Ala)n]2sub., n = 1, [CHG(β-ala)]2Suberate Diamide] | human GlxI (Homo sapiens) | Ki | nM | 70.1

Continue with the compound presented below.
Answer with reported Ki of O=C(O)CNC(=O)C(CSC(=O)N(O)c1ccc(Cl)cc1)NC(=O)CCC(NC(=O)CCNC(=O)CCNC(=O)CCCCCCC(=O)NCCC(=O)NCCC(=O)NC(CCC(=O)NC(CSC(=O)N(O)c1ccc(Cl)cc1)C(=O)NCC(=O)O)C(=O)O)C(=O)O (stereo not drawn) [[CHG(β-Ala)n]2sub., n = 2, [CHG(β-ala)2]2suberate diamide]
75.9
